Entries annotated with measured pEC50
- target.or.test.system: T1, cynomolgus monkey E-selectin, cell-surface expressed (cynomolgus monkey, UniProt P16581 22-610 (human entry))
- T1 construct: also called CHO-cynomolgus monkey E-selectin cells; cynomolgus monkey CHO-E
- T1 chain: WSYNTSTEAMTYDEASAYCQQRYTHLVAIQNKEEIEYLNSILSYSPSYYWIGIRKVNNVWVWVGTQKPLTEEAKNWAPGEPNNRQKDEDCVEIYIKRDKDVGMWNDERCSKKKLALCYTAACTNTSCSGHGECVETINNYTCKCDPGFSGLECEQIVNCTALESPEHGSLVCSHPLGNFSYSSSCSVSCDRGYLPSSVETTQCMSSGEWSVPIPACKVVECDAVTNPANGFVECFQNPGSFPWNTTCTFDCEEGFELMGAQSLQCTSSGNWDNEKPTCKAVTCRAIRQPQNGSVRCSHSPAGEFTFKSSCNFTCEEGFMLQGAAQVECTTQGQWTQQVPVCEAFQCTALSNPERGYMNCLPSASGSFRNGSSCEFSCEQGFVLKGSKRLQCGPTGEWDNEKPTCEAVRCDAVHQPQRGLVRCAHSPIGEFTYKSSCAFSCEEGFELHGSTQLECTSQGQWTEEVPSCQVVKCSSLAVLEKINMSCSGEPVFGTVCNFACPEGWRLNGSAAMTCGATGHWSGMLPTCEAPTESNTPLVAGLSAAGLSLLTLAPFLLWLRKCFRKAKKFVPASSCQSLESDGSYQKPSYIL
- assay: flow cytometry, CHO cells
- Protocol: Cells were maintained in growth medium at 37° C., 5% CO₂ and 95% air in a humidified incubator. Methotrexate or Zeocin were removed from the medium prior to culture for experiments. […] After incubation, antibodies were removed and the cells were washed three times by centrifugation at 300×g for 1 minute at 4° C. and resuspended in cold CHO buffer. […] A Becton Dickinson LSRFortessa instrument using 640 nanometer laser line was used to acquire cell fluorescence data. […]
pEC50: −log10 of the molar value.

>  <binder>
anti-E-selectin antibody 0170 chimera (antibody, human IgG1, kappa, V domains shown, rat VH/VL on effector-null human IgG1 and human kappa) VH: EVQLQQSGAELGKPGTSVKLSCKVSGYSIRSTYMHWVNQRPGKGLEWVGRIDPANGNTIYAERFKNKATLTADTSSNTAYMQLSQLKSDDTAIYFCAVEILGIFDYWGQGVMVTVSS VL: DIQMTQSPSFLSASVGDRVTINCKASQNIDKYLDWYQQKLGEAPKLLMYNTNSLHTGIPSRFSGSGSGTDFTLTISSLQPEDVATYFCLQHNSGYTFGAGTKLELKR

>  <pEC50>
8.42

$$$$
>  <binder>
anti-E-selectin antibody 0159 chimera (antibody, human IgG1, kappa, V domains shown, rat VH/VL on effector-null human IgG1 and human kappa) VH: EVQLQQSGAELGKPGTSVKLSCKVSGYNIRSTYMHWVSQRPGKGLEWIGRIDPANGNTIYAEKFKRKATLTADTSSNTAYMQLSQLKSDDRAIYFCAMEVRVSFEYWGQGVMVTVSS VL: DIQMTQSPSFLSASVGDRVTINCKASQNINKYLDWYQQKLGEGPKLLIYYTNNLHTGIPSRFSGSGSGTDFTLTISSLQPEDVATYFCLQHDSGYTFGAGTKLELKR

>  <pEC50>
8.47

$$$$
>  <binder>
anti-E-selectin antibody 0039 chimera (antibody, human IgG1, kappa, V domains shown, rat VH/VL on effector-null human IgG1 and human kappa) VH: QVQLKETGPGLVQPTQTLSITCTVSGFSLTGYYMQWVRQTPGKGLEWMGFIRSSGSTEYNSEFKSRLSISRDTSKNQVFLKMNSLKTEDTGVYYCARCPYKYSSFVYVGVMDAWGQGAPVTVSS VL: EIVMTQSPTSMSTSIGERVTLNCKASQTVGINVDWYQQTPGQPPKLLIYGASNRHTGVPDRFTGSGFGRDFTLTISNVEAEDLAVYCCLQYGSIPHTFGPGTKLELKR

>  <pEC50>
8.39

$$$$
>  <binder>
anti-E-selectin antibody 0180 chimera (antibody, human IgG1, kappa, V domains shown, rat VH/VL on effector-null human IgG1 and human kappa) VH: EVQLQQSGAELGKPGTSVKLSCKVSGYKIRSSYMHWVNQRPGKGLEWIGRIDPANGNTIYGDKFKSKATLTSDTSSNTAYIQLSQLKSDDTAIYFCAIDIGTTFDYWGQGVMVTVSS VL: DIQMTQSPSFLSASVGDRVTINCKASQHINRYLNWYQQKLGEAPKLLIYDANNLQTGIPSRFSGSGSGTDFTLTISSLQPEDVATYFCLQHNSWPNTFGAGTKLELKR

>  <pEC50>
8.44

$$$$
>  <binder>
anti-E-selectin antibody 0164 chimera (antibody, human IgG1, kappa, V domains shown, rat VH/VL on effector-null human IgG1 and human kappa) VH: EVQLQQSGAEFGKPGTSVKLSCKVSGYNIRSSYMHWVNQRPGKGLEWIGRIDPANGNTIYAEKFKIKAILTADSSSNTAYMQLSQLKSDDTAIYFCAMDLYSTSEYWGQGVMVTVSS VL: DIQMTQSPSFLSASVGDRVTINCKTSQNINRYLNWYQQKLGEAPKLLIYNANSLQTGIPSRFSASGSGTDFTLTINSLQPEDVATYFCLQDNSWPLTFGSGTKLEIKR

>  <pEC50>
8.76

$$$$
>  <binder>
anti-E-selectin antibody 0158 chimera (antibody, human IgG1, kappa, V domains shown, rat VH/VL on effector-null human IgG1 and human kappa) VH: QVQLKESGPGLVQPSETLSLTCTVSGFSISTYNVHWLRQPPGKGLEWMGMMWSGGSPDYNSALKSRLSISRDTSKNQVFLKMNSLQSEDTTTYYCARWGGGFDYWGQGVMVTVSS VL: DIVLTQSPTTLSVTPGETVSLSCRASHSIGTNLHWYQQKTNESPRLLIKFTSQSISGIPSRFSASGSGTDFTLNINNVEFDDVSSYFCQQTQSWPLTFGSGTKLEIKR

>  <pEC50>
7.85

$$$$
